All values here come from ChEMBL document CHEMBL4257456.

- Test system: A549
- test details: Antiproliferative activity against human A549 cells after 72 hrs by CCK-8 assay
- Type: functional, cell-based
- recorded conditions: A549, 72 h
measurement type: IC50 (µM)
Reply with just the number (in µM).

1) COc1ccc(-c2oc3cc(OC)c(F)cc3c2C(=O)c2cc(OC)c(OC)c(OC)c2)cc1    6.87

Prompt: Using the record for `CCOc1ccc(-c2oc3cc(OC)ccc3c2C(=O)c2cc(OC)c(OC)c(OC)c2)cc1` , report its IC50.
Completion: 1.37

Prompt: Using the record for COc1ccc(/C=C\c2cc(OC)c(OC)c(OC)c2)cc1OP(=O)(O)O [FOSBRETABULIN DISODIUM] , report its IC50.
Completion: 0.4

Prompt: Using the record for `COc1ccc(/C=C\c2cc(OC)c(OC)c(OC)c2)cc1O` , report its IC50.
Completion: 5.99

---

# IC50 listing for each entry below
- Tested on: MGC-803
- test details: Antiproliferative activity against human MGC803 cells after 72 hrs by CCK-8 assay
- Format: functional, cell-based
- recorded conditions: MGC-803, 72 h
Reply with just the number (in µM).

Below are worked cases with known answers.
1. CCOc1ccc(-c2oc3cc(OC)ccc3c2C(=O)c2cc(OC)c(OC)c(OC)c2)cc1    9.97
2. COc1ccc(/C=C\c2cc(OC)c(OC)c(OC)c2)cc1O    1.76
3. COc1ccc(-c2oc3cc(OC)c(F)cc3c2C(=O)c2cc(OC)c(OC)c(OC)c2)cc1    47.3

# ---- query compound ----
Prompt: Using the record for COc1ccc(/C=C\c2cc(OC)c(OC)c(OC)c2)cc1OP(=O)(O)O [FOSBRETABULIN DISODIUM] , report its IC50.
Completion: 0.47

---

- Test system: HCT-116
- test details: Antiproliferative activity against human HCT116 cells after 72 hrs by CCK-8 assay
- Type: functional, cell-based
- recorded conditions: HCT-116, 72 h
# IC50 listing for each entry below
Reply with just the number (in µM).

Below are worked cases with known answers.
1. COc1ccc(/C=C\c2cc(OC)c(OC)c(OC)c2)cc1OP(=O)(O)O [FOSBRETABULIN DISODIUM]    0.24
2. COc1ccc(/C=C\c2cc(OC)c(OC)c(OC)c2)cc1O [COMBRETASTATIN A4]    9
3. CCOc1ccc(-c2oc3cc(OC)ccc3c2C(=O)c2cc(OC)c(OC)c(OC)c2)cc1    12.6

# ---- query molecule ----
Prompt: IC50 of `COc1ccc(-c2oc3cc(OC)c(F)cc3c2C(=O)c2cc(OC)c(OC)c(OC)c2)cc1` on HCT-116?
Completion: 78.2
